Measured cell viability, listed per entry.
# Tested on: P12-Ichikawa
# ASSAY PROCEDURE: cell viability relative to DMSO control; higher = less cytotoxic
# SETUP CONDITIONS: HPLM + 10% dialyzed FBS; 48 h; 0.0211 µM
OBSERVED PROPERTY: cell viability (%)

Nc1ncnc2c1ncn2[C@@H]1O[C@H](CO)C[C@H]1O = 93.1
C=C[C@H]1CN2CCC1C[C@@H]2C(O)c1ccnc2ccc(OC)cc12 (stereo not given in full) = 119
CCCNC(=O)Nc1ccc(Oc2ncnc3cc(OC)c(OC)cc23)cc1Cl = 99.9
COc1ccc2c(c1)[C@]13CCCCC1C(C2)N(C)CC3 (stereo not given in full) = 116
COC(=O)c1ccc2c(c1)NC(=O)/C2=C(\Nc1ccc(N(C)C(=O)CN2CCN(C)CC2)cc1)c1ccccc1 = 101

---

Measured AUC of viability dose-response curve, listed per entry.
# Tested on: SEM cells
# ASSAY PROCEDURE: AUC of viability dose-response curve (% viability x log10 dose units); higher = less sensitive
# SETUP CONDITIONS: RPMI 5 mM glucose + 10% dialyzed FBS; 48 h
OBSERVED PROPERTY: AUC of viability dose-response curve

COc1ccc(C(=O)c2c(C)n(CCN3CCOCC3)c3cc(I)ccc23)cc1 = 458
CCCCCCCCCCCCCC(=O)N[C@H](CO)[C@H](O)c1ccc([N+](=O)[O-])cc1 = 280
CCCNC(=O)Nc1ccc(Oc2ncnc3cc(OC)c(OC)cc23)cc1Cl = 413
Cc1cccc(Nc2ccncc2[S+](=O)([O-])NC(=O)NC(C)C)c1 = 459
CC[C@H]1OC(=O)[C@H](C)C(=O)[C@H](C)[C@@H](O[C@H]2O[C@H](C)C[C@H](N(C)C)[C@H]2O)[C@](C)(OC)C[C@@H](C)C(=O)[C@H](C)[C@H]2N(CCCCn3cnc(-c4cccnc4)c3)C(=O)O[C@]12C = 453
CCOC(=O)C(C)OC1=CC=CC2=C1\C=C/N(CC(=O)NC3=CC=C4OCCOC4=C3)C2=O (stereo not drawn) = 443
CCOC(=O)\C1=C\[C@]2(CC)CCCN3CCC4=C([C@H]23)[N]1C5=C4C=CC=C5 = 476
CC12CC3CC(C)(C1)CC(N)(C3)C2 = 459

---

# Tested on: SEM cells
# ASSAY PROCEDURE: cell viability relative to DMSO control; higher = less cytotoxic
# SETUP CONDITIONS: RPMI 5 mM glucose + 10% FBS; 48 h; 0.0211 µM
OBSERVED PROPERTY: cell viability (%)

CC[C@H]1OC(=O)[C@H](C)C(=O)[C@H](C)[C@@H](O[C@H]2O[C@H](C)C[C@H](N(C)C)[C@H]2O)[C@](C)(OC)C[C@@H](C)C(=O)[C@H](C)[C@H]2N(CCCCn3cnc(-c4cccnc4)c3)C(=O)O[C@]12C = 117
Cc1ccccc1C(=O)Nc1ccc(C(=O)N2CCCC(O)c3cc(Cl)ccc32)c(C)c1 (centres undefined) = 136
c1nc2c(NC3CCCCC3)nc(Nc3ccc(N4CCOCC4)cc3)nc2[nH]1 = 121
CNCC[C@H](Oc1cccc2ccccc12)c1cccs1 = 116

---

# System: NOMO1
# ASSAY PROCEDURE: cell viability relative to DMSO control; higher = less cytotoxic
# SETUP CONDITIONS: RPMI 5 mM glucose + 10% dialyzed FBS; 48 h; 5.12 µM
OBSERVED PROPERTY: cell viability (%)

CC1=CC(=CC(=C1C\C2=N\CCN2)C)C(C)(C)C = 49.1
Cc1coc2c1C(=O)C(=O)c1c-2ccc2c1CCCC2(C)C = 88.4
CNC(=O)c1ccc(Nc2cc(Nc3ccccc3[S+](=O)([O-])C(C)C)c3cc[nH]c3n2)nc1 = 57.2
COC1=C(OCCCN2CCOCC2)C=CC\3=C1/N=C(/NC(=O)C4=CN=C(N)N=C4)N5CC/N=C35 = 49.6
CCCCN(CCCC)CC(O)c1cc(Cl)cc2c1-c1ccc(Cl)cc1/C2=C/c1ccc(Cl)cc1 (centres undefined) = 95.4
Oc1nc(-c2ccc(C(F)(F)F)cc2)nc2c1CSCC2 = 98.4
CCc1ccc(/C=C2/SC(=S)NC2=O)cc1 = 85.3
Cc1cccc(Nc2ccncc2[S+](=O)([O-])NC(=O)NC(C)C)c1 = 83.5
CC(N[C@H]1CCCC[C@@H]1NC(=O)c1ccc(Cl)cc1)c1cccc2ccccc12 (some centres undefined) = 107

Reference for the values: the supplement of paper PMC11451515
